experimental-details: Cytotoxicity against rat HBZY-1 cells assessed as reduction in cell viability by CCK-8 assay
Assay type: toxicity, cell-based
readout-type: CC50

*Q* Data request, read-out CC50, for CO/N=C(\C(=O)N[C@@H]1C(=O)N2C(C(=O)[O-])=C(C[n+]3ccccc3)CS[C@H]12)c1csc(N)n1.O=C(O)C(F)(F)F
*A* > 128 µg/mL

*Q* Data request, read-out CC50, for CCCCCCCCNC(=O)c1ccc[n+](CC2=C(C(=O)[O-])N3C(=O)[C@@H](NC(=O)/C(=N\OC)c4csc(N)n4)[C@H]3SC2)c1.O=C(O)C(F)(F)F
*A* > 128 µg/mL
